TESTED_ON: CFTR G551D mutant (Homo sapiens, UniProt P13569, G551D)
Construct: expressed in transfected cells; host or cells: HEK293 (reverse transfection with plasmid)
Sequence (P13569 whole entry G551D): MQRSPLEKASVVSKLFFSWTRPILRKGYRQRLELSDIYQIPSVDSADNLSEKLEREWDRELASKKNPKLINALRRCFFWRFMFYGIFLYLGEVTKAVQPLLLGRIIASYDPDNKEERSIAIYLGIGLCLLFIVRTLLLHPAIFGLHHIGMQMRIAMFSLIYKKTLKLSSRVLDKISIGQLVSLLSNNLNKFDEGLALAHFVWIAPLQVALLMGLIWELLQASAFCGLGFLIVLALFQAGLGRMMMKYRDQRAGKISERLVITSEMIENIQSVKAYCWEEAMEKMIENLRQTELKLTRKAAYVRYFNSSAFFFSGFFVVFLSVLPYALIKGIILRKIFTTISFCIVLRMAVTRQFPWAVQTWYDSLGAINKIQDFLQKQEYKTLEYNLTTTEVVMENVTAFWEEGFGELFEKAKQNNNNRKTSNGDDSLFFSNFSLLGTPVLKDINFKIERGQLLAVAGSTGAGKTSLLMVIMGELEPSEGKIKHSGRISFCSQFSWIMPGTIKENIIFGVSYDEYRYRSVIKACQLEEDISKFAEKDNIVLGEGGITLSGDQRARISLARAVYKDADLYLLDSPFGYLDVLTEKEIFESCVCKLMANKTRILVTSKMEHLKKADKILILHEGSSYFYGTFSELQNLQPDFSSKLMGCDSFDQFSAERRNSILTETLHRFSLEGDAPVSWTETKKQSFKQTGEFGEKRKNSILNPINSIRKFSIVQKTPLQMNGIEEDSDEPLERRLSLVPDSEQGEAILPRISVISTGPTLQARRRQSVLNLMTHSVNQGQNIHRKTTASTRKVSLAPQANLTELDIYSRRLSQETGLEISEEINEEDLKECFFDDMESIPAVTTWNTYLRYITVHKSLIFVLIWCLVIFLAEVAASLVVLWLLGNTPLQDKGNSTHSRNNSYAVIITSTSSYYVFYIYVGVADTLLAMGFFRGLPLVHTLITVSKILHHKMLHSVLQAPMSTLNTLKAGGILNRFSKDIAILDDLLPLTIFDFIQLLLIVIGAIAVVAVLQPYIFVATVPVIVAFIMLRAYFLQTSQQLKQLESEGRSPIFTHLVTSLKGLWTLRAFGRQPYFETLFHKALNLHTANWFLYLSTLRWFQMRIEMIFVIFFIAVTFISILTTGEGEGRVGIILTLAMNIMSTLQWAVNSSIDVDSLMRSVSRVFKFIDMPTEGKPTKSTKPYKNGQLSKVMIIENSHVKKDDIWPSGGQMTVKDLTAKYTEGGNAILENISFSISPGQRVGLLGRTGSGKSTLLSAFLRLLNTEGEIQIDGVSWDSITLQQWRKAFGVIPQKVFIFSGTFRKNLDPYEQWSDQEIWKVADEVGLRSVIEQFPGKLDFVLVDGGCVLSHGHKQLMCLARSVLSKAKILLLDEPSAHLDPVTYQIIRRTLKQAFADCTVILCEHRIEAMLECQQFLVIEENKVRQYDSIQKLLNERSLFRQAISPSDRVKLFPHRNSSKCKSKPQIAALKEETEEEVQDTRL
ASSAY_DETAILS: YFP-halide influx assay for the CFTR-G551D mutation
Type: cell-based
DETAILS: HEK293 cells, forskolin 10.67 μM
PARAMETER: EC50 (nM)

| COMPOUND | TESTED_ON | OBSERVED_MEASUREMENT |
| --- | --- | --- |
| CN(CCC(F)(F)F)S(=O)(=O)c1cc(C(N)=O)c(NC(=O)c2cc[nH]n2)s1 [Compound 194] | CFTR G551D mutant (Homo sapiens, UniProt P13569, G551D) | 185 |
| CN(Cc1ccc(C(F)(F)F)cc1)S(=O)(=O)c1cc(C(N)=O)c(NC(=O)c2cc[nH]n2)s1 [Compound 175] | CFTR G551D mutant (Homo sapiens, UniProt P13569, G551D) | 527 |
| CC(C)(O)C(=O)Nc1sc(S(=O)(=O)c2ccc(C#N)cc2OC(F)(F)F)cc1C(N)=O [Compound 393] | CFTR G551D mutant (Homo sapiens, UniProt P13569, G551D) | 662 |
| CC(O)C(=O)Nc1sc(S(=O)(=O)c2ccc(F)cc2)cc1C(N)=O (centres unmarked) [Compound 248] | CFTR G551D mutant (Homo sapiens, UniProt P13569, G551D) | 1390 |

[I] NC(=O)c1cc(S(=O)(=O)c2ccccc2C(F)(F)F)sc1NC(=O)C1(O)CC1 [Compound 257]
[II] NC(=O)c1cc(S(=O)(=O)N2CCC(F)(F)CC2)sc1NC(=O)c1cc(C(F)(F)F)[nH]n1 [Compound 189]
*Q* Of I and II , whose reported EC50 is numerically smaller? Lab log: write the label of the selected item as the result.
*A* II
(II: 226 nM, I: 333 nM)

[A] CC(CO)C(=O)Nc1sc(S(=O)(=O)c2ccc(OC(F)(F)F)cn2)cc1C(N)=O (centres unmarked) [Compound 392]
[B] CC(C)(O)C(=O)Nc1sc(S(=O)(=O)c2ccc(F)cc2OC(F)F)cc1C(N)=O [Compound 283]
*Q* Param pair: A , B . Output: the one whose EC50 is numerically greater. Lab log: write the label of the selected item as the result.
*A* A
(A: 1600 nM, B: 564 nM)
